Test: Alizarin Red S (ARS) displacement assay, binding to fructose
Conditions: ARS displacement, 0.1M phosphate buffer, pH 7.4, 25° C.
quantity_name: Kd (mM)

Here's what some known entries look like.
Q) Query: Kd; subject: NC(=O)[C@H](CNC(=O)c1sccc1B(O)O)NC(=O)c1sccc1B(O)O [Example 8]
A) 2.2

Q) May I ask what Kd has been recorded for O=C(O)CNC(=O)[C@@H]1C[C@H](NC(=O)c2ccc3c(c2)B(O)OC3)CN1C(=O)c1cc(B(O)O)ccc1[N+](=O)[O-] [Example 3] ?
A) 1.9

[P] O=C(O)CN(Cc1ccc(CNC(=O)c2ccc(B(O)O)c(F)c2)cc1)C(=O)c1ccc(B(O)O)c(F)c1 [Example 21]
[Q] O=C(O)CNC(=O)[C@@H]1C[C@H](NC(=O)c2ccc3c(c2)B(O)OC3)CN1C(=O)c1ccc2c(c1)B(O)OC2 [Example 2]
[R] O=C(O)CN(CCCNC(=O)c1ccc(B(O)O)c(F)c1)C(=O)c1ccc(B(O)O)c(F)c1 [Example 19]
Q) Ordering: ascending Kd. List each label, following the requested order.
A) Q, R, P

* * *

Assay: Alizarin Red S (ARS) displacement assay, binding to glucose
Settings: ARS displacement, 0.1M phosphate buffer, pH 7.4, 25° C.
quantity_name: Kd (mM)

These recorded examples may help you get a feel for the data.
Q) May I ask what Kd has been recorded for `O=C(O)CN(CCCNC(=O)c1ccc(F)c(B(O)O)c1)C(=O)c1ccc(F)c(B(O)O)c1` ?
A) 59

Q) May I ask what Kd has been recorded for `NC(=O)[C@H](CNC(=O)c1cc2c(c(C(F)(F)F)c1)COB2O)NC(=O)c1cc(B(O)O)cc([N+](=O)[O-])c1` ?
A) 3.4

Q) Find the recorded Kd belonging to `NC(=O)CN(C(=O)c1ccc2c(c1)B(O)OC2)[C@@H]1CCCC[C@H]1NC(=O)c1ccc2c(c1)B(O)OC2` and report it.
A) 1.64

[P] O=C(O)CN(Cc1cccc(CNC(=O)c2ccc(B(O)O)c(F)c2)c1)C(=O)c1ccc(B(O)O)c(F)c1
[Q] NC(=O)[C@H](CNC(=O)c1sccc1B(O)O)NC(=O)c1sccc1B(O)O
[R] O=C(O)CN(Cc1cccc(CNC(=O)c2cc(Br)cc(B(O)O)c2)c1)C(=O)c1cc(Br)cc(B(O)O)c1
Q) // ranking: key=Kd, reverse=True Put the labels in the requested order and write them down.
A) R, Q, P

[A] NC(=O)[C@H](CNC(=O)c1ccc2c(c1)B(O)OC2)NC(=O)c1cc(B(O)O)cc([N+](=O)[O-])c1
[B] NC(=O)[C@H](CNC(=O)c1ccc2c(c1)B(O)OC2)NC(=O)c1cc(B(O)O)ccc1[N+](=O)[O-]
[C] O=C(O)CN(CCCCCNC(=O)c1ccc(B(O)O)c(F)c1)C(=O)c1ccc(B(O)O)c(F)c1
[D] O=C(O)CN(Cc1cccc(CNC(=O)c2ccc(F)c(B(O)O)c2)c1)C(=O)c1ccc(F)c(B(O)O)c1
Q) Hey, can you sort those compounds up there by Kd, smallest first? # format: label list in the order the request specifies
A) B, A, C, D
(B: 4.4 mM, A: 13 mM, C: 30.4 mM, D: 88.6 mM)

[A] O=C(O)CNC(=O)[C@@H]1C[C@H](NC(=O)c2ccc3c(c2)B(O)OC3)CN1C(=O)c1ccc2c(c1)B(O)OC2
[B] O=C(O)CN(CCCNC(=O)c1ccc(B(O)O)c(F)c1)C(=O)c1ccc(B(O)O)c(F)c1
[C] O=C(O)CN(C(=O)c1ccc(F)c(B(O)O)c1)[C@H]1CCCC[C@H]1NC(=O)c1ccc(F)c(B(O)O)c1
Q) Endpoint returns the given compounds ordered by ascending Kd. Record the ranking as a list of labels in the requested order.
A) A, B, C

[A] O=C(O)CNC(=O)[C@@H]1C[C@H](NC(=O)c2ccc3c(c2)B(O)OC3)CN1C(=O)c1cc(B(O)O)ccc1[N+](=O)[O-]
[B] CS(=O)(=O)c1ccc(B(O)O)cc1C(=O)N[C@@H]1C[C@H](C(N)=O)N(C(=O)c2cc(B(O)O)ccc2S(C)(=O)=O)C1
Q) For the pair A and B , which member has the lower Kd number? Respond with the label that goes with your answer.
A) A
(A: 14 mM, B: 25.2 mM)
